B1: GAGE1 (parent)
chain: QPPEMIGPMRPEQFSDEVEPATPE

variants of: B1; test: protein stability index of a GFP-peptide fusion (GPS, HEK-293T) (PSI 1-6); higher = more stable; conditions: c terminus: a fixed tail appended;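 also: lentivirally expressed fusions sorted by FACS into six bins by GFP to DsRed ratio, PSI derived from sequencing read proportions per bin multiplied by bin number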
RESULT TYPE: protein stability index

[[record]]
mutation_notation = "D16G"
endpoint_result = 4.98

[[record]]
mutation_notation = "E19G"
endpoint_result = 4.86

[[record]]
mutation_notation = "P20W"
endpoint_result = 3.7

[[record]]
mutation_notation = "A21Y"
endpoint_result = 4.08

[[record]]
mutation_notation = "M9I"
endpoint_result = 5.13

[[record]]
mutation_notation = "I6W"
endpoint_result = 5.83

[[record]]
mutation_notation = "P20N"
endpoint_result = 4.75

[[record]]
mutation_notation = "R10M"
endpoint_result = 5.12

[[record]]
mutation_notation = "G7C"
endpoint_result = 5.63

[[record]]
mutation_notation = "P11S"
endpoint_result = 5.6

[[record]]
mutation_notation = "R10N"
endpoint_result = 5.28

[[record]]
mutation_notation = "E4K"
endpoint_result = 5.46

[[record]]
mutation_notation = "T22F"
endpoint_result = 4.46

[[record]]
mutation_notation = "M5R"
endpoint_result = 5.81

[[record]]
mutation_notation = "Q1N"
endpoint_result = 5.06

[[record]]
mutation_notation = "T22A"
endpoint_result = 4.6

[[record]]
mutation_notation = "P20K"
endpoint_result = 4.79

